Catalogue of growth values
- System: EKVX NSCLC
- experimental-protocol: NCI-60 one-dose screen, 48 h (100 = growth as untreated, 0 = no growth, -100 = all killed)
- condition-set: 10 µM
This is part of a sample that, as a whole, favours compounds with a hit. Of some 83,000 tested, about 20% had one in any assay. The source made the active and inactive calls. How the source made its calls: active means growth percent below 10; inactive means the rest.

compound	growth
COC(=O)CCCCCCCCC(C)c1ccc(C(C)=O)cc1 (stereo unspecified)	95.3% (inactive)
C=CCNCCCN1C(=O)c2ccc3c4c(ccc(c24)C1=O)C(=O)N(CCCNCC=C)C3=O	-78.7% (active)
CC(=O)Nc1nc(C)c(C(=O)NNC=O)s1	101% (inactive)
COc1ccc(Cn2cc3c(c2-c2ccccc2)CC(C)(C)c2cnoc2-3)cc1	38.7% (inactive)
C=C1C(=O)O[C@H]2[C@H]1CC/C(COC(=O)OCCCCCOC(=O)OC/C1=C/CC[C@@]3(C)O[C@H]3[C@H]3OC(=O)C(=C)[C@@H]3CC1)=C\CC[C@@]1(C)O[C@@H]21	-4.3% (active)
O=C(NNc1nc(N2CCCC2)nc(N2CCCC2)n1)c1ccccc1	102% (inactive)
[O-]c1c[n+](-c2ccc(Cl)cc2)no1	103% (inactive)
CCCCCCCCCCN=C(c1ccc(N(C)C)cc1)c1ccc(N(C)C)cc1	29.3% (inactive)
CCOc1nc(-c2ccccc2)cc2c(O)c(C(=O)NC(C)C)[nH]c(=O)c12	105% (inactive)
CC(=O)OC1Oc2ccccc2-c2oc(=O)c(-c3cc(=O)oc4cc(O)ccc34)cc21 (stereo unspecified)	86.6% (inactive)
CCC(CCNc1cc(OC)cc2cccnc12)CN1C(=O)c2ccccc2C1=O (stereo unspecified)	95.5% (inactive)
CCc1cc2n(n1)-c1ncc(C(=O)OC)cc1Oc1ccccc1-2	98.5% (inactive)
C[C@H](NC(=O)[C@@H]1CSSC[C@@H](NC(=O)Cc2nc3ccccc3cc2O)C(=O)NCC(=O)N1C)c1ccccc1	99.5% (inactive)
COc1cc(/C=C2\C(=O)Nc3cc(C)c(O)cc32)cc(OC)c1OC	48.5% (inactive)
CCSc1nc2c([nH]1)c(=O)n(C)c(=S)n2C	95.5% (inactive)
CCN(CC)CC(O)Cc1ccc(OC)cc1 (stereo unspecified)	98.7% (inactive)
O=C(O)CCCN1C(=O)NC2(C1=O)c1ccccc1-c1ccccc12	98.3% (inactive)
COc1ccc(Cn2cc3c(c2-c2cc(OC)c(OC)c(OC)c2)CCc2cnoc2-3)cc1[N+](=O)[O-]	20.4% (inactive)
CCc1c(C)[nH]c(=O)c(C(N)=O)c1C#N	103% (inactive)
Cc1noc(C)c1-c1ccc2nc(NC(=O)[C@H]3CCN(C#N)C3)cn2c1	94% (inactive)
Cc1ccc(-n2c(-c3cc4c([nH]c5ccccc54)c(-c4cccc(O)c4)n3)n[nH]c2=S)cc1	19.4% (inactive)

* * *

Below: a set of entries, each annotated with reported growth.
- Tested on: BT-549 breast
- experimental-protocol: NCI-60 one-dose screen, 48 h (100 = growth as untreated, 0 = no growth, -100 = all killed)
- condition-set: 10 µM
About 83,000 compounds went through this panel and 20% of them were active in at least one assay; those are over-represented in the sample as a whole.

compound	unit-tag	growth
CCOC(=O)c1c(O)c2cc(-c3ccccc3)nc(OCC)c2c(=O)n1C	%	133
FC(F)(F)c1ccc(-c2cnc(Cl)nc2NCc2cc(C(F)(F)F)cc(C(F)(F)F)c2)cc1	%	26.2
COc1cc(-c2nc(-c3nnc(-c4cccnc4)o3)c3ccccn23)cc(OC)c1OC	%	97.7
COc1ccc(C2C=C(c3ccc(Cl)c(Cl)c3)N=C3SC(C)=CN32)cc1 (stereo unspecified)	%	89.9
COc1ccc(-c2nc(NC(=O)CS(=O)(=O)c3ccc(F)cc3)sc2C)cc1	%	66.3
O=S(=O)(NC1c2ccccc2Oc2ccccc21)c1ccccc1	%	91.6
CCCCCCCC/C=C/CCCCCCCCC1=NCCN1CCO	%	83.1
CN(C)CCCN1c2ccccc2Sc2ccc(C(F)(F)F)cc21	%	25.7
CC(=O)OCC(COC(C)=O)(COC(C)=O)COC(C)=O	%	112
O=C(c1ccc(Cl)cc1)c1no[n+]([O-])c1C(=O)c1ccc(Cl)cc1	%	98.7
Nc1ncncc1-c1ccc(F)cc1	%	111

* * *

- Tested on: HOP-62 NSCLC
- experimental-protocol: NCI-60 one-dose screen, 48 h (100 = growth as untreated, 0 = no growth, -100 = all killed)
- condition-set: 10 µM
About 83,000 compounds went through this panel and 20% of them were active in at least one assay; those are over-represented in the sample as a whole.
# label = 1 if growth >= 70% else -1

compound	class-label
O=[N+]([O-])c1ccc(-c2nc(-c3ccccc3)c(-c3ccccc3)n2-c2ccccc2)cc1	-1
COc1ccc(-c2nnc(SCC(=O)c3ccccc3)o2)cc1	1
COC(=O)C1(C(=O)OC)C2C(=O)C3C(C21)C3(C(=O)OC(C)(C)C)C(=O)OC(C)(C)C (stereo not drawn)	1
CCOC(=O)Cn1nnc(-c2ccc(OCc3ccccc3F)cc2)n1	1
Cc1ccccc1[P+](Cc1ccccc1)(c1ccccc1)c1ccccc1	-1
COc1ccc(-c2nsc3c2NC(=O)CC3c2cccc(Cl)c2)cc1 (stereo not drawn)	-1
C/C=C\COc1cc(C)c(Cl)cc1Cl	1
CC(=O)N(O)c1ccc(/C=C/c2ccccc2)cc1	-1
COc1ccc(COC(=O)CC(C)C)cc1	1
CS(=O)(=O)Nc1ccc(Nc2c3ccccc3nc3cc(Cl)ccc23)cc1	-1
N#Cc1ccc(-n2cnc(NC(=O)[C@H]3CCN(C#N)C3)c2)cc1	-1
CC(C)C[C@H](NC(=O)Cn1ccc2ccccc2c1=O)B(O)O	1
Cc1ccc2oc(=O)cc(/C(=C3/C=CC=N3)c3ccc[nH]3)c2c1	-1
COc1cc(Cn2c(-c3ccccc3)c(Cl)c3c2-c2oncc2CC3)cc(OC)c1	1
CN(C)c1ccc2c(c1)OC(N)=C(C#N)C2c1ccc2c(c1)CCO2 (stereo not drawn)	-1
c1ccc(CC(NCCNC(Cc2ccccc2)c2ccccc2)c2ccccc2)cc1 (stereo not drawn)	-1
O=C(NC1CCCC1)c1ccc(N2CCC(NCc3cccc(C(F)(F)F)c3)CC2)cc1	1
CCOC(=O)C1=C(Nc2ccc(OC)cc2)C(N)=NC1=N	-1
O=[N+]([O-])c1cc2ncccc2c2ncccc12	1
COC(=O)c1c(C)nc(Nc2nc3ccccc3s2)nc1-c1ccc(Cl)cc1Cl	1
Nc1cc(O)cc(O)c1	1

* * *

- Tested on: NCI-H23 lung
- experimental-protocol: NCI-60 one-dose screen, 48 h
- condition-set: 10 µM
The panel holds about 83,000 compounds, 20% with a hit somewhere; the sample as a whole holds those more often. The source made the active and inactive calls. Rule for the calls: active = growth percent below 10; inactive = the rest.
Outcome codes: yes (1) for active, no (0) for inactive

compound	class-label
Cc1ccc([P+](Cc2ccc([N+](=O)[O-])cc2)(c2ccc(C)cc2)c2ccc(C)cc2)cc1	no (0)
COc1ccc(-c2nsc3c2NC(=O)CC3c2ccc(Cl)cc2)cc1 (stereo unspecified)	no (0)
CC1(C)Cc2c(cn(Cc3ccccc3)c2-c2ccccc2)-c2oncc21	no (0)
O=C1/C(=C/c2ccc(O)cc2)Oc2ccc(Cl)cc21	no (0)
O=C(/C=C/c1ccc(Cl)cc1)c1ccc(Br)cc1	no (0)
CCn1nc(-c2ccc(C(=O)OC)cc2)nc2c(=O)n(C)c(=O)nc1-2	no (0)
O=C(C=P(c1ccccc1)(c1ccccc1)c1ccccc1)c1ccc(Br)cc1	no (0)
CCN(CC)CCCOC(=O)Nc1ccccc1Cl	no (0)
COc1ccccc1CNCCCN1C(=O)c2ccc3c4c(ccc(c24)C1=O)C(=O)N(CCCNCCNCCCN)C3=O	yes (1)
COc1ccc(Cn2cc3c(c2-c2cc(OC)c(OC)c(OC)c2)CCc2cnoc2-3)cc1N	no (0)
CCN(CC)CCn1c(=N)n(CC(O)c2ccc(Cl)c(Cl)c2)c2ccccc21 (stereo unspecified)	no (0)
CCC(O)c1ccc(Br)cc1NC(=O)c1cccc(Cl)c1 (stereo unspecified)	no (0)
Brc1ccc(-c2cn3ccnc3c(-c3ccc(Br)cc3)n2)cc1	no (0)
N=C(N)c1ccc(-c2ccc(-c3ccccc3)s2)cc1F	yes (1)
CCOC(=O)CNC(=O)Nc1ccc(Oc2ccc(NC(=O)NCC(=O)OCC)cc2)cc1	no (0)
C=CCn1ccc(=O)nc1SC	no (0)
CN(C)c1ccc2c(c1)OC(N)=C(C#N)C2c1ccc2c(c1)CCCN2C (stereo unspecified)	no (0)
CCOc1nc(-c2ccccc2)cc2c(O)c(C(=O)N/N=C/c3ccc(OC)cc3)[nH]c(=O)c12	no (0)
COc1ccc(-c2nc3sc(-c4ccccc4)c(-c4ccccc4)n3c2/C=C/c2ccc(F)cc2)cc1	no (0)
COc1cc(C2=Nc3c/c(=C\c4c(O)[nH]c5ccc(Cl)cc45)ccc3=N2)cc(OC)c1OC	yes (1)
COc1cc(-c2nc3ccc(C)cc3[nH]2)ccc1OCC(=O)N=Nc1c(O)[nH]c2ccccc12	yes (1)
